I'd be grateful if you could share measured Kd for these entries.
- assay system: BRG1 AT-BRD (human, UniProt P51532 1434-1569)
- Sequence (P51532 1434-1569): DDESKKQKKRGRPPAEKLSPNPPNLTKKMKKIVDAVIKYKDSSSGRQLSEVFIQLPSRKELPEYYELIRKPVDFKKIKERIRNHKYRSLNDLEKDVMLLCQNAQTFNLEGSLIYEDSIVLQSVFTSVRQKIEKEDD
- experiment description: fluorescence anisotropy; FA and NMR: 50 mM K phosphate pH 7.0, 50 mM KCl, 0.5 mM EDTA, 1 mM DTT (NMR +10% D2O), 20 C (BRG1 NMR 25 C); EMSA: 150 nM DNA/NCP, 10 mM K phosphate, 10 mM KCl, on ice, 0.2x TBE gel
- protocol conditions: protein: recombinant; tags: pDEST15 or pGEX6p1 (GST); label: 5' 6-FAM on strand 1; blunt
Give bare numbers, in µM.

Go through the list and state Kd for each entry.
1. DNAI.FA (dsDNA) DNA 1: CCTCAATTGGTC DNA 2: GACCAATTGAGG
2. DNAII.FA (dsDNA) DNA 1: CGTAGACAGCTC DNA 2: GAGCTGTCTACG

1. 16
2. 40
